Reference for the values: paper PMC11345841

# assay.target: TRKB (Homo sapiens)
# Construct: purchased Eurofins DiscoverX KINOMEscan (scanTK)
# Sequence (Q16620 32-822): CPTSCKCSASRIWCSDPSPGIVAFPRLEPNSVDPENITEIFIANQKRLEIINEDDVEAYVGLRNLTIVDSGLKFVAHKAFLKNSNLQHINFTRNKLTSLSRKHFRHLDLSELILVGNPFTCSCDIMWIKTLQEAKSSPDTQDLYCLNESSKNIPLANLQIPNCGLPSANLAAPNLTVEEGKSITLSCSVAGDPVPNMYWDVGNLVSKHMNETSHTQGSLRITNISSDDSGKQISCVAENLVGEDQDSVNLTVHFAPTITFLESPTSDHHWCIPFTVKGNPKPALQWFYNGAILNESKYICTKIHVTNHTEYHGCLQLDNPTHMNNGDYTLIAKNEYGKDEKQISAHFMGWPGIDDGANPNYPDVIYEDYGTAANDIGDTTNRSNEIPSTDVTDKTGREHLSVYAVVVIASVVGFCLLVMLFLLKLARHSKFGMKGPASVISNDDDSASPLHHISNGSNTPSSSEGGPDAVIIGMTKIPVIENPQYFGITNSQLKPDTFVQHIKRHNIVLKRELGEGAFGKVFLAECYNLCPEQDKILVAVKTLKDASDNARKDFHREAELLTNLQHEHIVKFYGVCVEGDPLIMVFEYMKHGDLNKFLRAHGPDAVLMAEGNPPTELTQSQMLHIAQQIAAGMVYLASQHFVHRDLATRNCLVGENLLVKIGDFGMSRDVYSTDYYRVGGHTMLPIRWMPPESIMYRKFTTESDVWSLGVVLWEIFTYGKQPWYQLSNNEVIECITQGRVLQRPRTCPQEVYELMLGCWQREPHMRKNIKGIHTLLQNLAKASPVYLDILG
# protocol: KINOMEscan ScanTK
# Assay type: binding
# assay.setup: @1000nM; TRKB
Recorded difference in %Control versus compound Ib at 1 µM for the following compounds
# number only, unit % dropped from output

Please review the following examples before continuing.
Cc1cnc(S(C)(=O)=O)nc1N1CCCC(n2nc(-c3ccc(Oc4ccccc4)cc3)c3c(N)ncnc32)C1 (stereo not shown)	-17
CCOC(=O)c1cnc(S(C)(=O)=O)nc1N1CCC[C@@H](n2nc(-c3ccc(Oc4ccccc4)cc3)c3c(N)ncnc32)C1	-15
CNC(=O)c1cnc(S(C)(=O)=O)nc1N1CCCC(n2nc(-c3ccc(Oc4ccccc4)cc3)c3c(N)ncnc32)C1 (stereo not shown)	-5

Shift focus to the following entry.
In: Any idea what its difference in %Control versus compound Ib at 1 µM is? The compound is COC(=O)c1cnc(S(C)(=O)=O)nc1N1CCCC(n2nc(-c3ccc(Oc4ccccc4)cc3)c3c(N)ncnc32)C1 (stereo not shown)
Out: 7

----------
Measured remaining binding at 1 µM of individual entries
# assay.target: ABL1(T315I)-phosphorylated (Homo sapiens, UniProt P00519, T315I)
# Construct: purchased Eurofins DiscoverX KINOMEscan (scanTK)
# protocol: KINOMEscan ScanTK
# Type: binding
# assay.setup: @1000nM, read-out: %Control
Numbers only; they are read as %.

Example molecules with recorded remaining binding at 1 µM:
Cc1cnc(S(C)(=O)=O)nc1N1CCCC(n2nc(-c3ccc(Oc4ccccc4)cc3)c3c(N)ncnc32)C1 (stereo not shown)	70
CCOC(=O)c1cnc(S(C)(=O)=O)nc1N1CCC[C@@H](n2nc(-c3ccc(Oc4ccccc4)cc3)c3c(N)ncnc32)C1	72
CNC(=O)c1cnc(S(C)(=O)=O)nc1N1CCCC(n2nc(-c3ccc(Oc4ccccc4)cc3)c3c(N)ncnc32)C1 (stereo not shown)	85

Now for the molecule whose remaining binding at 1 µM we want.
In: // lookup remaining binding at 1 µM for COC(=O)c1cnc(S(C)(=O)=O)nc1N1CCCC(n2nc(-c3ccc(Oc4ccccc4)cc3)c3c(N)ncnc32)C1 (stereo not shown)
Out: 68

----------
# assay.target: EPHA6 (Homo sapiens)
# Construct: purchased Eurofins DiscoverX KINOMEscan (scanTK)
# protocol: KINOMEscan ScanTK
# Assay type: binding
# assay.setup: @1000nM, read-out: %Control
Listed below: remaining binding at 1 µM values for each entry.
Could you give me the number in %? Just the number is fine.

Examples with answers:
C=CC(=O)N1CCC[C@@H](n2nc(-c3ccc(Oc4ccccc4)cc3)c3c(N)ncnc32)C1 [Compound 1g, Ibrutinib, reference compound]	77
CCOC(=O)c1cnc(S(C)(=O)=O)nc1N1CCC[C@@H](n2nc(-c3ccc(Oc4ccccc4)cc3)c3c(N)ncnc32)C1	87

In: # remaining binding at 1 µM lookup, item Cc1cnc(S(C)(=O)=O)nc1N1CCCC(n2nc(-c3ccc(Oc4ccccc4)cc3)c3c(N)ncnc32)C1 (centres unmarked)
Out: 100

In: What value of remaining binding at 1 µM has been recorded for this entry: CNC(=O)c1cnc(S(C)(=O)=O)nc1N1CCCC(n2nc(-c3ccc(Oc4ccccc4)cc3)c3c(N)ncnc32)C1 (centres unmarked)
Out: 97

In: Return reported remaining binding at 1 µM; argument: COC(=O)c1cnc(S(C)(=O)=O)nc1N1CCCC(n2nc(-c3ccc(Oc4ccccc4)cc3)c3c(N)ncnc32)C1 (centres unmarked)
Out: 92

----------
# assay.target: EGFR(L858R) (Homo sapiens, UniProt P00533, L858R)
# Construct: purchased Eurofins DiscoverX KINOMEscan (scanTK)
# Sequence (P00533 25-1210 L858R): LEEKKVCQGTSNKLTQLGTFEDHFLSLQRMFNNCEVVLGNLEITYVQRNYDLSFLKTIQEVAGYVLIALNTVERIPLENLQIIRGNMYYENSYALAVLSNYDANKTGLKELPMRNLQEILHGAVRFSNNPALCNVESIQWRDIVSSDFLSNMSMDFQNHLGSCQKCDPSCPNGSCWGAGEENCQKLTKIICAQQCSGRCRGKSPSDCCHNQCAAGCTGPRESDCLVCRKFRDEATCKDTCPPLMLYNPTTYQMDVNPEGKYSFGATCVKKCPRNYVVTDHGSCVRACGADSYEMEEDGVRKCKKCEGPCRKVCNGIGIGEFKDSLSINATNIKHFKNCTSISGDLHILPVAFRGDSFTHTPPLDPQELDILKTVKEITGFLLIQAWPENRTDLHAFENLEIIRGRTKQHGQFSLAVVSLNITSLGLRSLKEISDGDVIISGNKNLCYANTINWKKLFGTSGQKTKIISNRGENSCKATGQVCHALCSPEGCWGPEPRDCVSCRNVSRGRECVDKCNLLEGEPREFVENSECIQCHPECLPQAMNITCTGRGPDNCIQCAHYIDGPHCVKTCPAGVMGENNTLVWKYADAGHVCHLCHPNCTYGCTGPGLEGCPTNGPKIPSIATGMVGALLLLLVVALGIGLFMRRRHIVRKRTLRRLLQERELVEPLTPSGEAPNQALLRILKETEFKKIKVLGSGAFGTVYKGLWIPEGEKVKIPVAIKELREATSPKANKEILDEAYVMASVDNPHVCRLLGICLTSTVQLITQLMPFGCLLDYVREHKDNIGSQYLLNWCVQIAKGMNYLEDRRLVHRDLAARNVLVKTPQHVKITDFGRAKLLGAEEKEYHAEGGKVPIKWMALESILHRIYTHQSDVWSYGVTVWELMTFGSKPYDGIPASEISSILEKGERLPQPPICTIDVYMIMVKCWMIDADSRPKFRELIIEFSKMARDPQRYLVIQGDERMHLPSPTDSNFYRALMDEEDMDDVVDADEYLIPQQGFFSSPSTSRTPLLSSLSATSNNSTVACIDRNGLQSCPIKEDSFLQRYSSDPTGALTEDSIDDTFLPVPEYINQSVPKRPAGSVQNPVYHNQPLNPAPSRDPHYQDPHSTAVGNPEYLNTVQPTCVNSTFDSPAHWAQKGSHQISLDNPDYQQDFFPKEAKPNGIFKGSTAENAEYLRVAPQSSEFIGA
# protocol: KINOMEscan ScanTK
# Assay type: binding
# assay.setup: @1000nM
Below is a list of entries, each paired with its recorded %Control difference from compound Ib at 1 µM value.
The figure you give is taken to be in %; do not add the unit.

Consider the worked cases shown below.
CCOC(=O)c1cnc(S(C)(=O)=O)nc1N1CCC[C@@H](n2nc(-c3ccc(Oc4ccccc4)cc3)c3c(N)ncnc32)C1 [Compound 8c]	64.1
COC(=O)c1cnc(S(C)(=O)=O)nc1N1CCCC(n2nc(-c3ccc(Oc4ccccc4)cc3)c3c(N)ncnc32)C1 (stereo not shown) [Compound 8b]	72.1
CNC(=O)c1cnc(S(C)(=O)=O)nc1N1CCCC(n2nc(-c3ccc(Oc4ccccc4)cc3)c3c(N)ncnc32)C1 (stereo not shown) [Compound 8d]	39.1

In: Fill blank: measured %Control difference from compound Ib at 1 µM of the compound Cc1cnc(S(C)(=O)=O)nc1N1CCCC(n2nc(-c3ccc(Oc4ccccc4)cc3)c3c(N)ncnc32)C1 (stereo not shown) [Compound 8a] is ____.
Out: 81.1

----------
Listed here are molecules together with their documented difference in %Control vs compound Ib at 1 µM.
# assay.target: FGFR2 (Homo sapiens, UniProt P21802)
# Construct: purchased Eurofins DiscoverX KINOMEscan (scanTK)
# Sequence (P21802 22-821): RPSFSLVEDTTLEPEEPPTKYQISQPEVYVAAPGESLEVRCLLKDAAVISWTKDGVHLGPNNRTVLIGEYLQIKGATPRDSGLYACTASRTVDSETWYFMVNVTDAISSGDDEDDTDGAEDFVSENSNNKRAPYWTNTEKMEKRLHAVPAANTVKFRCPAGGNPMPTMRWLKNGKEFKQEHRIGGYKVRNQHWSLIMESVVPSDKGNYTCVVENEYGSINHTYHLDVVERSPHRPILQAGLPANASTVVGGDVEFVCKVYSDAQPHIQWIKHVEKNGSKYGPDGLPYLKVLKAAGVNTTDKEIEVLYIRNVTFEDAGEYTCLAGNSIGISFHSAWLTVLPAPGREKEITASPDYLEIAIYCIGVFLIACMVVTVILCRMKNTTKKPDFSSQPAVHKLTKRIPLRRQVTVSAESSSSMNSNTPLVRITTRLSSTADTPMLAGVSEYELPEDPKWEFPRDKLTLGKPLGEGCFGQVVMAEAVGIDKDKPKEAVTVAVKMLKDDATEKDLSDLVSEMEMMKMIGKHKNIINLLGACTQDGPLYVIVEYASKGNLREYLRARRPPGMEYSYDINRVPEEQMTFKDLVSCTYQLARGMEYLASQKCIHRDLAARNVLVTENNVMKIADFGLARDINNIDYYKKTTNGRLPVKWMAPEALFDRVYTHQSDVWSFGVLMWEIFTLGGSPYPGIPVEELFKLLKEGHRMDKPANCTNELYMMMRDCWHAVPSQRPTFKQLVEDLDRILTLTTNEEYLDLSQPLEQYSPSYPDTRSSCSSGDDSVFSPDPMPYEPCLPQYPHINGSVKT
# protocol: KINOMEscan ScanTK
# Assay type: binding
# assay.setup: @1000nM
Include the unit after the number when you answer.

Some entries whose results are on file:
CNC(=O)c1cnc(S(C)(=O)=O)nc1N1CCCC(n2nc(-c3ccc(Oc4ccccc4)cc3)c3c(N)ncnc32)C1 (stereo not shown)	35%
CCOC(=O)c1cnc(S(C)(=O)=O)nc1N1CCC[C@@H](n2nc(-c3ccc(Oc4ccccc4)cc3)c3c(N)ncnc32)C1	41%
COC(=O)c1cnc(S(C)(=O)=O)nc1N1CCCC(n2nc(-c3ccc(Oc4ccccc4)cc3)c3c(N)ncnc32)C1 (stereo not shown)	47%

In: Please look up its difference in %Control vs compound Ib at 1 µM: Cc1cnc(S(C)(=O)=O)nc1N1CCCC(n2nc(-c3ccc(Oc4ccccc4)cc3)c3c(N)ncnc32)C1 (stereo not shown)
Out: 46%

----------
Reported remaining binding at 1 µM by item:
# assay.target: ABL1(Q252H)-phosphorylated (Homo sapiens, UniProt P00519, Q252H)
# Construct: purchased Eurofins DiscoverX KINOMEscan (scanTK)
# protocol: KINOMEscan ScanTK
# Type: binding
# assay.setup: @1000nM, read-out: %Control
State just the number; it will be interpreted in %.

Record excerpt, results attached:
COC(=O)c1cnc(S(C)(=O)=O)nc1N1CCCC(n2nc(-c3ccc(Oc4ccccc4)cc3)c3c(N)ncnc32)C1 (stereo not shown)	92
CNC(=O)c1cnc(S(C)(=O)=O)nc1N1CCCC(n2nc(-c3ccc(Oc4ccccc4)cc3)c3c(N)ncnc32)C1 (stereo not shown)	93
CCOC(=O)c1cnc(S(C)(=O)=O)nc1N1CCC[C@@H](n2nc(-c3ccc(Oc4ccccc4)cc3)c3c(N)ncnc32)C1	92

Consider the additional molecule presented here.
In: // query remaining binding at 1 µM value for entry Cc1cnc(S(C)(=O)=O)nc1N1CCCC(n2nc(-c3ccc(Oc4ccccc4)cc3)c3c(N)ncnc32)C1 (stereo not shown)
Out: 98

----------
# assay.target: EPHB2 (Homo sapiens, UniProt P29323)
# Construct: purchased Eurofins DiscoverX KINOMEscan (scanTK)
# protocol: KINOMEscan ScanTK
# Type: binding
# assay.setup: @1000nM, read-out: %Control
Reported remaining binding at 1 µM values are given for each entry in this list.
// return numeric value only (unit: %, not printed)

In: Give EPHB2 (Homo sapiens, UniProt P29323) remaining binding at 1 µM for COC(=O)c1cnc(S(C)(=O)=O)nc1N1CCCC(n2nc(-c3ccc(Oc4ccccc4)cc3)c3c(N)ncnc32)C1 (centres unmarked) [Compound 8b]
Out: 91

In: // map C=CC(=O)N1CCC[C@@H](n2nc(-c3ccc(Oc4ccccc4)cc3)c3c(N)ncnc32)C1 [Compound 1g, Ibrutinib, reference compound] to recorded remaining binding at 1 µM (system: EPHB2 (Homo sapiens, UniProt P29323))
Out: 100

----------
# assay.target: EGFR(G719C) (Homo sapiens, UniProt P00533, G719C)
# Construct: purchased Eurofins DiscoverX KINOMEscan (scanTK)
# Sequence (P00533 25-1210 G719C): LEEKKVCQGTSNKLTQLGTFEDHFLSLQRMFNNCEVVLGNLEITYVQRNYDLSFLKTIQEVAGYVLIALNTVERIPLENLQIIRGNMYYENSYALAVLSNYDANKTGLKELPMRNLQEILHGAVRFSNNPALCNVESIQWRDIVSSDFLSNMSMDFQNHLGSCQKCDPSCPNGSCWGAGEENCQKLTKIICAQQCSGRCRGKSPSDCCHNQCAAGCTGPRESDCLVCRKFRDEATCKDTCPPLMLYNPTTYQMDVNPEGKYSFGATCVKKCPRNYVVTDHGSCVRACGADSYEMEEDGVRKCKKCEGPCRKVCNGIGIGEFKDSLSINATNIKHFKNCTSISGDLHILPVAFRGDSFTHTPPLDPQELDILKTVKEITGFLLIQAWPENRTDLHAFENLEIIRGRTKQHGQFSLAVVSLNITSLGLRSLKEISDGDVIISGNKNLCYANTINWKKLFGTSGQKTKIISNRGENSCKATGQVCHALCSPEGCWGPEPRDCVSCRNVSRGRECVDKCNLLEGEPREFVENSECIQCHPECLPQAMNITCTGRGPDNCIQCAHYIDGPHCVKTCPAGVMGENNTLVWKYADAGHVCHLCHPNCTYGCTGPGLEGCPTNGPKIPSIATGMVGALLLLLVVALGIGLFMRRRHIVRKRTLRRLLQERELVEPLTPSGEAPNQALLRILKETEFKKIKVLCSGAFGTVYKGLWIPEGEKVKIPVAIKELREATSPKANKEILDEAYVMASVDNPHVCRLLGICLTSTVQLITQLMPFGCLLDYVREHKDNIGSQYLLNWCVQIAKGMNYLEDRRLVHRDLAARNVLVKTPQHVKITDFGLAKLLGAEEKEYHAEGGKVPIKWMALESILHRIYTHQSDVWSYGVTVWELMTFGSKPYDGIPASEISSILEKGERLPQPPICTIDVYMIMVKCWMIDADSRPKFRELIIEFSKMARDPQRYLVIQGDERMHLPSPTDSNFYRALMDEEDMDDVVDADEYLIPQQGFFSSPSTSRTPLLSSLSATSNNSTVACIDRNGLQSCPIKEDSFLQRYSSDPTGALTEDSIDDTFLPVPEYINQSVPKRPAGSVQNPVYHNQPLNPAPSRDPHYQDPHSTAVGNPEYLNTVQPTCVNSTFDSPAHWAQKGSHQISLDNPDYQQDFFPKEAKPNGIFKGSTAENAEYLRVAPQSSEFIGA
# protocol: KINOMEscan ScanTK
# Type: binding
# assay.setup: read-out: %Control @1000nM
As shown below, each of these compounds has a reported remaining binding at 1 µM value.
Write the value in % as a bare number.

Known remaining binding at 1 µM results, listed for orientation:
Cc1cnc(S(C)(=O)=O)nc1N1CCCC(n2nc(-c3ccc(Oc4ccccc4)cc3)c3c(N)ncnc32)C1 (stereo not shown)	34
COC(=O)c1cnc(S(C)(=O)=O)nc1N1CCCC(n2nc(-c3ccc(Oc4ccccc4)cc3)c3c(N)ncnc32)C1 (stereo not shown)	2.8
CCOC(=O)c1cnc(S(C)(=O)=O)nc1N1CCC[C@@H](n2nc(-c3ccc(Oc4ccccc4)cc3)c3c(N)ncnc32)C1	7.5

Next item in the queue.
In: Given the entry CNC(=O)c1cnc(S(C)(=O)=O)nc1N1CCCC(n2nc(-c3ccc(Oc4ccccc4)cc3)c3c(N)ncnc32)C1 (stereo not shown) , report its measured remaining binding at 1 µM.
Out: 0.65

----------
# assay.target: BTK (Homo sapiens, UniProt Q06187)
# Construct: purchased Eurofins DiscoverX KINOMEscan (scanTK)
# Sequence (Q06187 whole entry): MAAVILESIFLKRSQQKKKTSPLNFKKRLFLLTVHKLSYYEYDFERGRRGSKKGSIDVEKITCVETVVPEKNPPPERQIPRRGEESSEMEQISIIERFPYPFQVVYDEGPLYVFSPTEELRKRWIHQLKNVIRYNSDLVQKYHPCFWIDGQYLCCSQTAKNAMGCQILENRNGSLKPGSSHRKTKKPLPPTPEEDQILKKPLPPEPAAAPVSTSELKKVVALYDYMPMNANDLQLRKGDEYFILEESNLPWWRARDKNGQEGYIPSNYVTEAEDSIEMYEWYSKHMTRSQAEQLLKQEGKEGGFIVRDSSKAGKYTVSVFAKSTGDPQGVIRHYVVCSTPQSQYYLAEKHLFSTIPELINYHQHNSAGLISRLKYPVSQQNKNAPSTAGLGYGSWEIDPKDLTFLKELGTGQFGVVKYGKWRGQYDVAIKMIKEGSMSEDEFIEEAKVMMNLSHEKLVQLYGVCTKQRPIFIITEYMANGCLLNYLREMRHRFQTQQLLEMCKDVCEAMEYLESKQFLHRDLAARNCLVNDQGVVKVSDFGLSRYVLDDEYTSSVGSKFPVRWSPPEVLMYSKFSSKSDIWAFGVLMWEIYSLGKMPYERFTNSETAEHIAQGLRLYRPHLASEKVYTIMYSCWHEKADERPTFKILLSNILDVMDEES
# protocol: KINOMEscan ScanTK
# Type: binding
# assay.setup: @1000nM; BTK; read-out: %Control
Recorded remaining binding at 1 µM values for a group of compounds are listed next.

# example entries with known answers
CCOC(=O)c1cnc(S(C)(=O)=O)nc1N1CCC[C@@H](n2nc(-c3ccc(Oc4ccccc4)cc3)c3c(N)ncnc32)C1	18%
COC(=O)c1cnc(S(C)(=O)=O)nc1N1CCCC(n2nc(-c3ccc(Oc4ccccc4)cc3)c3c(N)ncnc32)C1 (stereo not shown)	0.75%
Cc1cnc(S(C)(=O)=O)nc1N1CCCC(n2nc(-c3ccc(Oc4ccccc4)cc3)c3c(N)ncnc32)C1 (stereo not shown)	0.1%

In: Need remaining binding at 1 µM, item CNC(=O)c1cnc(S(C)(=O)=O)nc1N1CCCC(n2nc(-c3ccc(Oc4ccccc4)cc3)c3c(N)ncnc32)C1 (stereo not shown)
Out: 0%
